These measurements were taken from patent US20050053647A1.

# Assay details: Saturation solubility of diamorphine base in solvents
# Applied conditions: Dimethylisosorbide/Vitamin E 1:1, organic solvent or mixture
Value type: solubility (µg/mL)
Numbers only, in µg/mL.

Query: Any idea what its solubility is? The compound is CC(=O)Oc1ccc2c3c1O[C@H]1[C@@H](OC(C)=O)C=C[C@H]4[C@@H](C2)N(C)CC[C@@]341
Reply: 9820

----------
# Assay details: Saturation solubility of diamorphine base in solvents
# Applied conditions: Dimethylisosorbide, organic solvent or mixture
Value type: solubility (mg/mL)
Answers are plain numbers, in mg/mL.

Query: Give its solubility value. Item: CC(=O)Oc1ccc2c3c1O[C@H]1[C@@H](OC(C)=O)C=C[C@H]4[C@@H](C2)N(C)CC[C@@]341
Reply: 12.8

----------
# Assay details: Saturation solubility of diamorphine base in solvents
# Applied conditions: Vitamin E, oil or lipid
Value type: solubility (µg/mL)
Answers are plain numbers, in µg/mL.

Query: Consider the molecule shown here: CC(=O)Oc1ccc2c3c1O[C@H]1[C@@H](OC(C)=O)C=C[C@H]4[C@@H](C2)N(C)CC[C@@]341 What is its recorded solubility?
Reply: 1620

----------
# Assay details: Saturation solubility of diamorphine base in solvents
# Applied conditions: R-(+)-Limonene/Vitamin E 1:1, organic solvent or mixture
Value type: solubility (mg/mL)
Give bare numbers, in mg/mL.

Query: If you can, please state the reported solubility value of CC(=O)Oc1ccc2c3c1O[C@H]1[C@@H](OC(C)=O)C=C[C@H]4[C@@H](C2)N(C)CC[C@@]341 [diamorphine base, diamorphine] .
Reply: 19

----------
# Assay details: Saturation solubility of diamorphine base in solvents
# Applied conditions: Lemon oil, oil or lipid
Value type: solubility (mg/mL)
Give bare numbers, in mg/mL.

Query: Quick check: solubility of CC(=O)Oc1ccc2c3c1O[C@H]1[C@@H](OC(C)=O)C=C[C@H]4[C@@H](C2)N(C)CC[C@@]341 ?
Reply: 10.3

----------
# Assay details: Saturation solubility of diamorphine base in solvents
# Applied conditions: Benzyl nicotinate, organic solvent or mixture
Value type: solubility

Query: Given CC(=O)Oc1ccc2c3c1O[C@H]1[C@@H](OC(C)=O)C=C[C@H]4[C@@H](C2)N(C)CC[C@@]341 , state its recorded solubility.
Reply: 23.2 mg/mL

----------
# Assay details: Saturation solubility of diamorphine base in solvents
# Applied conditions: Benzyl nicotinate/Vitamin E 1:1, organic solvent or mixture
Value type: solubility

Query: Quick check: solubility of CC(=O)Oc1ccc2c3c1O[C@H]1[C@@H](OC(C)=O)C=C[C@H]4[C@@H](C2)N(C)CC[C@@]341 [diamorphine base, diamorphine] ?
Reply: 17.7 mg/mL

----------
# Assay details: Saturation solubility of diamorphine base in solvents
# Applied conditions: Lemon oil/Vitamin E 1:1, oil or lipid
Value type: solubility (µg/mL)
One number for each entry, in µg/mL.

Query: Given the compound CC(=O)Oc1ccc2c3c1O[C@H]1[C@@H](OC(C)=O)C=C[C@H]4[C@@H](C2)N(C)CC[C@@]341 , what is its reported solubility?
Reply: 8000

----------
# Assay details: Saturation solubility of diamorphine base in solvents
# Applied conditions: Tween 80/Vitamin E 1:1, organic solvent or mixture
Value type: solubility

Query: So what's the measured solubility for this one? CC(=O)Oc1ccc2c3c1O[C@H]1[C@@H](OC(C)=O)C=C[C@H]4[C@@H](C2)N(C)CC[C@@]341
Reply: 4450 µg/mL

----------
# Assay details: Saturation solubility of diamorphine base in solvents
# Applied conditions: N-Methylpyrrolidone, organic solvent or mixture
Value type: solubility (mg/mL)
Answers are plain numbers, in mg/mL.

Query: For CC(=O)Oc1ccc2c3c1O[C@H]1[C@@H](OC(C)=O)C=C[C@H]4[C@@H](C2)N(C)CC[C@@]341 , what is its reported solubility?
Reply: 32.2
